Tested on: CAG foci in primary DM1 patient myoblasts
Assay Overview: Single-cut screening: CAG foci staining
Format: cell-based, human
Conditions: single sgRNA, DNA-PKi treated
Values of % of CAG foci positive nuclei (DNA-PKi) greater than or equal to 2% map to true (1); values below map to false (0).

{"Substance": "CGCCCCCTAGCggccggggagg (guide RNA; as printed in the source, key not given here) [SluU41]", "Class Name": "false (0)"}
{"Substance": "TCTTGTGCATGACGCCCTGCTC (guide RNA; chemistry not fully specified) [SluD31]", "Class Name": "true (1)"}
{"Substance": "ggcccctccctccccggccGCT (guide RNA; as printed in the source, key not given here) [SluU50]", "Class Name": "false (0)"}
{"Substance": "ACCTCGTCCTCCGACTCGCTGA (guide RNA; chemistry not fully specified) [SluD65]", "Class Name": "false (0)"}
{"Substance": "GCCCAGCTCCAGTCCTGTGATC (guide RNA; chemistry not fully specified) [SluU28]", "Class Name": "false (0)"}
{"Substance": "CAGTGCATCCAAAACGTGGATT (guide RNA; chemistry not fully specified) [SluD75]", "Class Name": "false (0)"}
